# Lookup of reported Purity % keyed by entry
- assay_notes: Crystal form stability study (influencing factor experiments)
- Assay type: physicochemical
- measurement_conditions: 75% RH, 5 days, open container
Lab note: write values as number then unit, every time.

Known results for molecules:
- CCc1c(F)ccc2cc(O)cc(-c3nc4c5c(nc(OC[C@@]67CCCN6C[C@H](F)C7)nc5c3F)N3C[C@H]5CC[C@H](N5)[C@H]3CO4)c12 [Crystal form K]: 99.8%
- CCc1c(F)ccc2cc(O)cc(-c3nc4c5c(nc(OC[C@@]67CCCN6C[C@H](F)C7)nc5c3F)N3C[C@H]5CC[C@H](N5)[C@H]3CO4)c12 [Crystal form C]: 99.6%
- CCc1c(F)ccc2cc(O)cc(-c3nc4c5c(nc(OC[C@@]67CCCN6C[C@H](F)C7)nc5c3F)N3C[C@H]5CC[C@H](N5)[C@H]3CO4)c12 [Crystal form A]: 99.3%
- CCc1c(F)ccc2cc(O)cc(-c3nc4c5c(nc(OC[C@@]67CCCN6C[C@H](F)C7)nc5c3F)N3C[C@H]5CC[C@H](N5)[C@H]3CO4)c12 [Crystal form I]: 99.6%
- CCc1c(F)ccc2cc(O)cc(-c3nc4c5c(nc(OC[C@@]67CCCN6C[C@H](F)C7)nc5c3F)N3C[C@H]5CC[C@H](N5)[C@H]3CO4)c12 [Crystal form J]: 99.6%

Now for another entry.
Documented Purity % of CCc1c(F)ccc2cc(O)cc(-c3nc4c5c(nc(OC[C@@]67CCCN6C[C@H](F)C7)nc5c3F)N3C[C@H]5CC[C@H](N5)[C@H]3CO4)c12 [Crystal form B] : 99.3%

====

# Lookup of reported Purity % keyed by entry
- assay_notes: Crystal form stability study (influencing factor experiments)
- Type: physicochemical
- measurement_conditions: 75% RH, 30 days, open container
Respond with the bare value in %.

Known results for compounds:
* CCc1c(F)ccc2cc(O)cc(-c3nc4c5c(nc(OC[C@@]67CCCN6C[C@H](F)C7)nc5c3F)N3C[C@H]5CC[C@H](N5)[C@H]3CO4)c12 [Crystal form I] | 99.6
* CCc1c(F)ccc2cc(O)cc(-c3nc4c5c(nc(OC[C@@]67CCCN6C[C@H](F)C7)nc5c3F)N3C[C@H]5CC[C@H](N5)[C@H]3CO4)c12 [Crystal form A] | 99.3

Now for another entry.
Documented Purity % of CCc1c(F)ccc2cc(O)cc(-c3nc4c5c(nc(OC[C@@]67CCCN6C[C@H](F)C7)nc5c3F)N3C[C@H]5CC[C@H](N5)[C@H]3CO4)c12 [Crystal form K] : 99.7

====

# Lookup of reported Purity % 1 month keyed by entry
- assay_notes: Long-term/accelerated stability
- Format: physicochemical
- measurement_conditions: 40° C./75% RH, 1 month
Respond with the bare value in %.

Known results for compounds:
- CCc1c(F)ccc2cc(O)cc(-c3nc4c5c(nc(OC[C@@]67CCCN6C[C@H](F)C7)nc5c3F)N3C[C@H]5CC[C@H](N5)[C@H]3CO4)c12 [Crystal form K]: 99.7
- CCc1c(F)ccc2cc(O)cc(-c3nc4c5c(nc(OC[C@@]67CCCN6C[C@H](F)C7)nc5c3F)N3C[C@H]5CC[C@H](N5)[C@H]3CO4)c12 [Crystal form C]: 99.5
- CCc1c(F)ccc2cc(O)cc(-c3nc4c5c(nc(OC[C@@]67CCCN6C[C@H](F)C7)nc5c3F)N3C[C@H]5CC[C@H](N5)[C@H]3CO4)c12 [Crystal form J]: 99.4
- CCc1c(F)ccc2cc(O)cc(-c3nc4c5c(nc(OC[C@@]67CCCN6C[C@H](F)C7)nc5c3F)N3C[C@H]5CC[C@H](N5)[C@H]3CO4)c12 [Crystal form B]: 99.3
- CCc1c(F)ccc2cc(O)cc(-c3nc4c5c(nc(OC[C@@]67CCCN6C[C@H](F)C7)nc5c3F)N3C[C@H]5CC[C@H](N5)[C@H]3CO4)c12 [Crystal form I]: 99.6

Documented Purity % 1 month of CCc1c(F)ccc2cc(O)cc(-c3nc4c5c(nc(OC[C@@]67CCCN6C[C@H](F)C7)nc5c3F)N3C[C@H]5CC[C@H](N5)[C@H]3CO4)c12 [Crystal form A] : 99.3
